Test system: gastric adenocarcinoma cell line SGC-7901
protocol: MTT antiproliferative assay, SGC-7901
Assay type: cell-based
conditionInfo: Homo sapiens, 72 h drug exposure, triplicate, read-out: Antiproliferative activity (IC50 ± SD) SGC-7901
pIC50: −log10 of the molar value.
measurementLabel: pIC50

A = CCc1cc(-c2ccc(OC)c(N)c2)n(-c2cc(OC)c(OC)c(OC)c2)n1 [Compound 7r]
B = COc1cc(-n2nc(C)cc2-c2ccc(F)cc2)cc(OC)c1OC [Compound 7d]
Q. Compare the recorded pIC50 of A and B ; state which is larger. Answer format: the label of the selected item.
A. A
(A: 5.34, B: 4.68)
